Assay: self-splicing fitness, log relative to wild type (ln ratio); higher = more splicing; Tetrahymena group I intron in knt gene, E. coli kanamycin selection, DiMSum; sequences stand for … in CUCUCU…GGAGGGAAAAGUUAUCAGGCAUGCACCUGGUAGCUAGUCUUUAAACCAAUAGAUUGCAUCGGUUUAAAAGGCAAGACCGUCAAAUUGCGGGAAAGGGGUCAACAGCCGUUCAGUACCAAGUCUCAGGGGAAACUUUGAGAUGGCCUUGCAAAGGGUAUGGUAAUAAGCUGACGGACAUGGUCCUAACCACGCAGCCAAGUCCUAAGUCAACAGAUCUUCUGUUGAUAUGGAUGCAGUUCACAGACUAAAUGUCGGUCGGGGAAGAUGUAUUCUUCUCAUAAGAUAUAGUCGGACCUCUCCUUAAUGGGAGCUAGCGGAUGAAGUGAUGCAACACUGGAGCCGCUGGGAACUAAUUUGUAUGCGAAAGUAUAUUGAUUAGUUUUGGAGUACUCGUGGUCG;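 note: selection with 25 µg/mL kanamycin versus none on LB agar overnight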
Details: 37 °C
Would you mind classing the entries by self-splicing fitness (ln)? Ranges: class 0: < -2; class 1: ≥ -2 and < -0.8; class 2: ≥ -0.8

Example cases with answers are listed next.
{"SEQUENCE_TEXT": "UUCAAGCAAUAUUACGGUUU", "DISCRETE_LABEL": "class 1"}
{"SEQUENCE_TEXT": "CGAAAGCAAUAUUACGCUGU", "DISCRETE_LABEL": "class 0"}
{"SEQUENCE_TEXT": "GUCUAGCAAUAUUACGAGAG", "DISCRETE_LABEL": "class 1"}
{"SEQUENCE_TEXT": "UGGCAGCAAUAUUACGAUAG", "DISCRETE_LABEL": "class 2"}
{"SEQUENCE_TEXT": "ACUAAGCAAUAUUACGGCAC", "DISCRETE_LABEL": "class 1"}

Challenge: Which self-splicing fitness (ln) category applies to GAUGAGCAAUAUUACGGUGU here?
Response given: class 1

Challenge: And then ACCCAGCAAUAUUACGAAUU , what is it?
Response given: class 1

Challenge: Please give the result for UAUCAGCAAUAUUACGGUCC too.
Response given: class 1

Challenge: Please give the result for UUUGAGCAAUAUUACGCAGC too.
Response given: class 0

Challenge: Lookup GUAGAGCAAUAUUACGACUA
Response given: class 2
